All figures here come from the DeepSol protein solubility set.

- measurement.description: soluble on expression in E. coli; label from the status in PepcDB or PDB records
outcome.measure: soluble on expression in E. coli

Guide cases for soluble on expression in E. coli, answers given:
| chain.sequence | soluble on expression in E. coli |
| --- | --- |
| MGSDKIHHHHHHMQIDKQQVGNRIHQLRIAAGLSMAKLASAIGLAGKSTINDWEKGRTLANADRLAKVAAYFDVSTNYLLYGSLTEYVTAVFQNGGLNHSEFNVLLWEYVDLTTTNPNILSSDLFSSASQTEQGVSDPTKIAAALITPTINNAIRQIVPEIVQHYQQTTTYPEPQAVIQAGCYVFRHRIQIIRRTFTGKYNRIVRLLDNVDLYEKLQPDDDLKAYLNQTTGPKTQVQNGYSLDEKYQRQMNKVITEFHQALNRINDAYQAELMACGQGQAHSAAD | not soluble |
| MGHHHHHHSHMLIPKTMGKMSPGHVRDLHGSPSHHRPRGPGGKSGFVGWAQGLCAVCSLGTWCPVSQLLQPWLKGANIELGLWLQRVEAPSIGSFHVMLSLWVQRCQELRFGNLCLDFRIYMETPGCPGKSLLQGQSPHGEPLLGQCGREMWGRAPTQSPCWGTA | not soluble |
| HWPPLGIVRDLWTESGIGPERVAVMERVAGPKCCLLGRQNDRPSGAAFVGLAGPFAMLHALEVTPALRRLGSAQAMIRRGACWAEAAGAHWFSLVVTTANAPARALYEALGMEEVGHYHYRLK | not soluble |
| MGHHHHHHSHMKVVLSLGGSVLSNESEKIREFAKTIESVAQQNQVFVVVGGGKLAREYIKRARELGASETFCDYIGIAATRLNAMLLISAIPSAAKKVPVDFMEAEELSKLYRVVVMGGTFPGHTTDATAALLAEFIKADVFINATNVDGVYSADPKSDTSAVKYDRLSPQQLVEIVSRSSAKAGTNVVIDLLAAKIIERSKIKTYVIL | soluble |
| QGAVRKATAAEIAALPRQKVELVDPPFVHAHSQVAEGGPKVVEFTMVIEEKKIVIDDAGTEVHAMAFNGTVPGPLMVVHQDDYLELTLINPETNTLMHNIDFHAATGALGGGGLTEINPGEKTILRFKATKPGVFVYHCAPPGMVPWHVVSGENGAIMVLPREGLHDGKGKALTYDKIYYVGEQDFYVPRDENGKYKKYEAPGDAYEDTVKVMRTLTPTHVVFNGAVGALTGDKAMTAAVGEKVLIVHSQANRDTRPHLIGGHGDYVWATGKFNTPPDVDQETWFIPGGAAGAAFYTFQQPGIYAYVNHNLIEAFELGAAAHFKVTGEWNDDLMTSVLAPSGT | soluble |

We next turn to a different sequence, shown below.
Input: Supply measured soluble on expression in E. coli of MSLNLRESFISKFAASFVKPRFEIWFAAVLIPENDQAFWVRYSTLNPRNNRDLFPMGTLWVSLFDRKNPKNHRTTTQSFPYEEVLIKEHAIEFPEASVGPDHMSGKIQTSMSEDLAWDLEFRHKLEPTGHLPRWLEKTPINHIWGTNRVSELFWTFVPKFDDDPDDWSMEIVTVRPQPFTPTLTFVTLLKRGIPIHQHSIFRSLRSSTKIEYPKLHFKTRLDDYEISVESEMDKDQIAGYIYRDPDGSPRYIEQSDIGNVKCVIRHRRKETVLNAKQAAGVEFHGLRPWRKDHEYLDPYQTEGHHHHHH in your reply.
Output: not soluble
